# Test system: glycogen synthase kinase-3 (GSK3A per assay name; protocol says GSK3B)
# ASSAY_DETAILS: compounds binding glycogen synthase kinase-3 – biochemical, small-molecule microarray, 635 nm fluorescence, GSK3A, primary screen (AID 1103); also: the record names both GSK3A and GSK3B
# STATED_CONDITIONS: fluorescence 635 nm, higher = more signal
Classify on composite z-score using lo (below -0.2), med (-0.2 to below 0.5), hi (0.5 or more)

Previously resolved entries follow.
COMPOUND	ASSIGNED_LABEL
O=C1C2C=CC(C(O)c3ccc(Br)cc3)N(n3cnnc3)C2C(=O)N1Cc1ccccc1 (configuration not stated)	hi
Cc1ccccc1/C=C/C=O	lo
COc1cc(NN2C(C(O)c3ccccc3)C=CC3C(=O)N(c4ccccc4)C(=O)C32)cc(OC)c1OC (configuration not stated)	hi
CCCCCN1CC=CC23O[C@@H]4C=CCCOC(=O)C4[C@H]2C(=O)N(CCCO)[C@@H]3C1=O (some centres not stated)	lo
C=CC[C@@]1(C(=O)NCCN2CCOCC2)N=C(c2ccc(OCCCO)cc2)O[C@@H]1c1ccccc1CN=[N+]=[N-]	hi

Prompt: Each compound maps to one class by composite z-score. Which class for [N-]=[N+]=NCc1ccccc1[C@@H]1OC(c2ccc(OCCCO)cc2)=N[C@]1(Cc1ccccc1)C(=O)O ?
Response: med

Prompt: Subsequent entry: C=C(COC)C(=O)CC[C@H](OC(=O)c1cccnc1)c1ccccc1OCCO
Response: hi

Prompt: Subsequent entry: O=C1OCC=C[C@H]2OC34C=CCN(c5ccc6ccccc6c5)C(=O)[C@H]3N(CCO)C(=O)[C@@H]4[C@@H]12 (some centres not stated)
Response: lo

Prompt: Subsequent entry: C=CCN1C(=O)[C@@]2(O[C@@H](CCO)[C@H]([Si](C)(C)c3ccc(OC)cc3)[C@H]2C)c2cc(N3C(=O)COc4ccccc43)ccc21
Response: med

Prompt: Subsequent entry: C=CC[C@@]1(C(=O)OC)N=C(c2ccc(OCCCO)cc2)O[C@@H]1c1ccccc1CN=[N+]=[N-]
Response: lo

Prompt: Subsequent entry: CCCCN1CC=CC23O[C@@H]4C=CCCOC(=O)C4[C@H]2C(=O)N(CCCO)[C@@H]3C1=O (some centres not stated)
Response: lo

Prompt: Subsequent entry: C=C(COC)/C(=C/C[C@H](OC(C)=O)c1ccccc1OCCO)c1cnc2ccccc2c1
Response: hi

Prompt: Subsequent entry: COC(=O)[C@@]1(Cc2ccc(OC)cc2)[C@H]2c3cc(C(=O)N(C)C)n(CCSCCO)c3C[C@H]2CN1C(=O)c1ccccc1
Response: hi

Prompt: Subsequent entry: COc1ccc([Si](C)(C)[C@H]2[C@H](CC(=O)N3Cc4ccccc4C[C@H]3CO)O[C@@]3(C(=O)N(Cc4cccc(I)c4)c4ccccc43)[C@@H]2C)cc1
Response: med

Prompt: Subsequent entry: COc1ccc([Si](C)(C)[C@@H]2[C@@H](CCn3cc([C@H](O)c4ccccc4)nn3)O[C@]3(C(=O)N(C)c4ccccc43)[C@H]2C)cc1
Response: med

Prompt: Subsequent entry: Cc1ccc(N2C(=O)c3ccccc3[C@](C)(C(=O)NCCN3CCOCC3)[C@@H]2c2ccc(CO)cc2)nc1
Response: lo

Prompt: Subsequent entry: O=C1C2C=CC(C(O)c3ccc(-c4ccccc4)s3)N(Nc3ccccc3F)C2C(=O)N1c1ccccc1 (configuration not stated)
Response: hi

The reported measurements were obtained from PubChem BioAssay.
